# credit: patent US20130251703A1

system tested: human HER3 endogenously expressed on human cancer cells (SK-Br-3, BT-474, MCF7) (human, UniProt P21860 20-1342)
procedure text: cell-based or functional assay
# note: boundary value 600 pM maps to false (0); MCF7 pHER3 IC50 below it maps to true (1)

binder	category label
MOR12603 (antibody, human IgG1, kappa, V domains shown, Tested as IgG) VH: QVQLVQSGAEVKKPGSSVKVSCKASGGTFSSYAISWVRQAPGQGLEWMGLIIPRYGKARYAQKFQGRVTITADESTSTAYMELSSLRSEDTAVYYCARNWPYYYMDFWGQGTLVTVSS VL: DIVLTQSPATLSLSPGERATLSCRASQNIVFNLAWYQQKPGQAPRLLIYDASNRATGVPARFSGSGSGTDFTLTISSLEPEDFAVYYCQQTKNRPPTFGQGTKVEIKR	true (1)
MOR13663 (antibody, human IgG1, lambda, V domains shown) VH: QVQLVQSGAEVKKPGASVKVSCKASGYTFTSYDIHWVRQAPGQGLEWMGRIDPYSGNTNYAQKFQGRVTMTRDTSISTAYMELSRLRSEDTAVYYCARGSFYTRDSYFDVWGQGTLVTVSS VL: DIALTQPASVSGSPGQSITISCTGTSSDVGTYNQVSWYQQHPGKAPKLMIYGVSKRPSGVSNRFSGSKSGNTASLTISGLQAEDEADYYCSVWTSIKVFVFGGGTKLTVLG	true (1)
MOR13655 (antibody, human IgG1, lambda, V domains shown, Tested as IgG) VH: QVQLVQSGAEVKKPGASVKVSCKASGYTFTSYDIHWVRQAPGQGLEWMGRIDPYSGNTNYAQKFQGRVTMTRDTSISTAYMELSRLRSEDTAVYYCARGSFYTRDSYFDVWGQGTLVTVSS VL: DIALTQPASVSGSPGQSITISCTGTSSDVGTYNQVSWYQQHPGKAPKLMIYGVSKRPSGVSNRFSGSKSGNTASLTISGLQAEDEADYYCSSATQKPDVTVFGGGTKLTVLG	true (1)
MOR13668 (antibody, human IgG1, lambda, V domains shown) VH: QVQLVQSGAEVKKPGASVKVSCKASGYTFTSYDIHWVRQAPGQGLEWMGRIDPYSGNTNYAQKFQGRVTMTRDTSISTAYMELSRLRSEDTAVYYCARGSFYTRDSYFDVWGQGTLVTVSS VL: DIALTQPASVSGSPGQSITISCTGTSSDVGTYNQVSWYQQHPGKAPKLMIYGVSKRPSGVSNRFSGSKSGNTASLTISGLQAEDEADYYCQVWDSDQAMVFGGGTKLTVLG	false (0)
